Species on record: Rattus norvegicus
Protocol Summary: Selectivity ratio (Ki value towards kappa receptor compared to that of delta receptor).
Endpoint Label: Selectivity
Give bare numbers.

Example results:
• CCO[C@@]12Cc3c(oc4ccccc34)[C@@H]3Oc4c(O)ccc5c4[C@@]31CCN(CC1CC1)[C@@H]2C5 = 80
• CO[C@@]12Cc3c([nH]c4ccccc34)[C@@H]3Oc4c(O)ccc5c4[C@@]31CCN(CC1CCCCC1)[C@@H]2C5 = 8.8
• CC(C)CCO[C@@]12Cc3c([nH]c4ccccc34)[C@]3(C)Oc4c(O)ccc5c4[C@@]31CCN(C)[C@@H]2C5 = 99
• C=CCN1CC[C@]23c4c5ccc(O)c4O[C@H]2c2[nH]c4ccccc4c2C[C@@]3(OCC)[C@H]1C5 = 134
• C=CCN1CC[C@]23c4c5ccc(O)c4O[C@H]2c2[nH]c4ccccc4c2C[C@@]3(OC)[C@H]1C5 = 61

Would you be so kind as to report Selectivity for each listed record?
1. C=CCO[C@@]12Cc3c(n(CC=C)c4ccccc34)[C@@H]3Oc4c(O)ccc5c4[C@@]31CCN(CC=C)[C@@H]2C5
2. CN1CC[C@]23c4c5ccc(O)c4O[C@H]2c2[nH]c4ccccc4c2C[C@@]3(O)[C@H]1C5
3. CCCO[C@@]12Cc3c([nH]c4ccccc34)[C@]3(C)Oc4c(O)ccc5c4[C@@]31CCN(CC1CC1)[C@@H]2C5

A)
105
198
95
